Data origin, for the record: patent US20080221132A1

Please respond with reported IC50 for every item in the list.
- Test system: Colon_HCT116 (HCT116, colon cancer)
- protocol_details: Cell proliferation assay (ATPlite), HCT116
- Type: cell-based
- measurement_conditions: Homo sapiens, HCT-116; TABLE C; 72 hours, 0.5% fetal bovine serum, ATP content; read-out: IC50 grading, Colon_HCT116

Consider the following illustrative entries.
| compound | property_measured | recorded_measurement |
| --- | --- | --- |
| O=C(CCCCCCOc1ccc2ncnc(Nc3ccc(F)c(Cl)c3)c2c1)NO [Compound 18] | IC50 | 0.1 to 1 µM |
| COc1cc2ncnc(NCc3ccccc3)c2cc1OCCCCCCC(=O)NO [Compound 85] | IC50 | 0.1 to 1 µM |

# context switch: different compound, same IC50
Return reported IC50; argument: C#Cc1cccc(Nc2ncnc3cc(OC)c(OCCCCCCC(=O)NO)cc23)c1 [Compound 12]
0.1 to 1 µM

---

- Tested on: Breast_MDAMB468 (MDA-MB-468, breast adenocarcinoma)
- protocol_details: Cell proliferation assay (ATPlite), MDA-MB-468
- Format: cell-based
- measurement_conditions: Homo sapiens, TABLE D, Breast adenocarcinoma, read-out: IC50 grading, MDA-MB-468
pIC50: −log10 of the molar value.
property_measured: pIC50

# input compound: C#Cc1cccc(Nc2ncnc3cc(OCCOC)c(OCCOC)cc23)c1 [Erlotinib, reference compound] ; wanted: its pIC50
5.30 to 6.30

---

Exercise: state measured IC50 for each of the compounds provided.
- Tested on: Prostate_PC3 (PC-3, prostate adenocarcinoma)
- protocol_details: Cell proliferation assay (ATPlite), PC3
- Assay type: cell-based
- measurement_conditions: TABLE C; 72 hours, 0.5% fetal bovine serum, ATP content; read-out: IC50 grading, Prostate_PC3

| compound | IC50 |
| --- | --- |
| COc1cc2ncnc(Nc3ccc(F)c(Cl)c3)c2cc1OCCCCCCC(=O)NO [Compound 6] | 0.1 to 1 µM |

Continue with the compound presented below.
Query for Prostate_PC3 (PC-3, prostate adenocarcinoma): what IC50 does the record show for C#Cc1cccc(Nc2ncnc3cc(OC)c(OCCCCCCC(=O)NO)cc23)c1 [Compound 12] ?
0.1 to 1 µM

---

- System: Pancreas_HPAC
- protocol_details: Cell proliferation assay (ATPlite), HPAC
- Assay type: cell-based
- measurement_conditions: Homo sapiens, TABLE C, 72 hours, 0.5% fetal bovine serum, ATP content, read-out: IC50 grading, Pancreas_HPAC
- Procedure: A representative number of compounds were assayed against several different cell lines using the cell proliferation assay: Cell Proliferation Assay: Cancer cell lines were plated at 5,000 to 10,000 per well in 96-well flatted bottomed plates with various concentration of compounds. The cells were incubated with compounds for 72 hours in the presence of 0.5% of fetal bovine serum. […] 25 μl of substrate solution was then added to the well and subsequently the luminescence was measured.
pIC50: −log10 of the molar value.
property_measured: pIC50

In the examples that follow, each entry is paired with its recorded pIC50.
| compound_structure_string | target | pIC50 |
| --- | --- | --- |
| COc1cc2ncnc(N[C@H](C)c3ccccc3)c2cc1OCCCCCC(=O)NO | Pancreas_HPAC | < 5.00 |
| O=C(CCCCCCOc1ccc2ncnc(Nc3ccc(F)c(Cl)c3)c2c1)NO | Pancreas_HPAC | 5.00 to 6.00 |
| COc1cc2ncnc(NCc3ccccc3)c2cc1OCCCCCCC(=O)NO | Pancreas_HPAC | 5.00 to 6.00 |
| COc1cc2ncnc(N[C@H](C)c3ccccc3)c2cc1OCCCCCCC(=O)NO | Pancreas_HPAC | < 5.00 |
| COCCOc1cc2ncnc(Nc3ccc(F)c(Cl)c3)c2cc1NC(=O)CCCCCCC(=O)NO | Pancreas_HPAC | < 5.00 |
| COc1cc2ncnc(Nc3ccc(F)c(Cl)c3)c2cc1NC(=O)CCCCCCC(=O)NO | Pancreas_HPAC | 5.00 to 6.00 |
| C#Cc1cccc(Nc2ncnc3cc(OC)c(OCCCCCCC(=O)NO)cc23)c1 | Pancreas_HPAC | 5.00 to 6.00 |

# next compound below
Record lookup: for Pancreas_HPAC, what pIC50 belongs to COc1cc2ncnc(Nc3ccc(F)c(Cl)c3)c2cc1OCCOc1ccc(/C=C/C(=O)NO)cc1 ?
5.00 to 6.00
